Would you kindly list residual activity for each of these molecules?
biological target: ITK (human) (UniProt Q08881); assay: radiometric filter-binding kinase assay, Kinase HotSpot; conditions: compound 0.5 µM; ATP 10 µM
Sequence (Q08881 whole entry, looked up): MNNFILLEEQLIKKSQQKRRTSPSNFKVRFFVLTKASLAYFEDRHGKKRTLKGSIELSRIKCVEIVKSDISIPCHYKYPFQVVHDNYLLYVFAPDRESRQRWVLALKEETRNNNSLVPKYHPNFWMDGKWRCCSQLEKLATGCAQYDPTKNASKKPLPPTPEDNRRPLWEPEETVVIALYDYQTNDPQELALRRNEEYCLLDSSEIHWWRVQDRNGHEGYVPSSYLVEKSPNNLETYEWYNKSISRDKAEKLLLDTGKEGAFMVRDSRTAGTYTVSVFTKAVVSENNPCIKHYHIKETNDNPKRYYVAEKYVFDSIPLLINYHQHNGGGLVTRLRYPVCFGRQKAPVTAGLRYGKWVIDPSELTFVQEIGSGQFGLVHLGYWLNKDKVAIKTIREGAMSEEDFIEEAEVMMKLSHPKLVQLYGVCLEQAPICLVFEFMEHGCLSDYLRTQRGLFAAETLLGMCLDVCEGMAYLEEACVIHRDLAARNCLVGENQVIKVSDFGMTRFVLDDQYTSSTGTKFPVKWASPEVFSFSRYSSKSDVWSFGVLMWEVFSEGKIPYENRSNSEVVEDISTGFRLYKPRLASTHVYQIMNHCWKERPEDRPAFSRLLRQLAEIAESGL
Numbers only, in %.

The following molecules each have a reported value; give each one's residual activity.
1. O=C(Nc1ccc(Cl)cc1)c1ccccc1NCc1ccncc1
2. CCN1/C(=C/C(C)=O)Sc2ccc(OC)cc21
3. Nc1nc(Nc2ccc(S(N)(=O)=O)cc2)nn1C(=O)c1c(F)cccc1F
4. O=C(NC(NC(=S)Nc1ccc(F)c([N+](=O)[O-])c1)C(Cl)(Cl)Cl)C(c1ccccc1)c1ccccc1 (centres undefined)
5. CC(C)n1cnc2c(Nc3cccc(Cl)c3)nc(NCCO)nc21
6. NC(=O)c1ccc(N(C(N)=O)c2c(F)cccc2F)nc1-c1ccc(F)cc1F

Reply text:
1: 94.1; 2: 102; 3: 105; 4: 94.9; 5: 96; 6: 105

Give one value of residual activity per listed molecule.
1. Nc1n[nH]c2nnc(-c3c(-c4ccccc4)nn4ccccc34)cc12
2. CSc1nc(-c2ccc(F)cc2)c(-c2ccnc(NC(C)c3ccccc3)c2)[nH]1 (centres undefined)
3. Clc1ccc(Nc2nnc(Cc3ccncc3)c3ccccc23)cc1

Reply text:
90.8
91.6
103

---

target: TGFBR1 (human) (UniProt P36897); experiment: radiometric filter-binding kinase assay, Kinase HotSpot; conditions: compound 0.5 µM; ATP 10 µM
Sequence (P36897 whole entry, looked up): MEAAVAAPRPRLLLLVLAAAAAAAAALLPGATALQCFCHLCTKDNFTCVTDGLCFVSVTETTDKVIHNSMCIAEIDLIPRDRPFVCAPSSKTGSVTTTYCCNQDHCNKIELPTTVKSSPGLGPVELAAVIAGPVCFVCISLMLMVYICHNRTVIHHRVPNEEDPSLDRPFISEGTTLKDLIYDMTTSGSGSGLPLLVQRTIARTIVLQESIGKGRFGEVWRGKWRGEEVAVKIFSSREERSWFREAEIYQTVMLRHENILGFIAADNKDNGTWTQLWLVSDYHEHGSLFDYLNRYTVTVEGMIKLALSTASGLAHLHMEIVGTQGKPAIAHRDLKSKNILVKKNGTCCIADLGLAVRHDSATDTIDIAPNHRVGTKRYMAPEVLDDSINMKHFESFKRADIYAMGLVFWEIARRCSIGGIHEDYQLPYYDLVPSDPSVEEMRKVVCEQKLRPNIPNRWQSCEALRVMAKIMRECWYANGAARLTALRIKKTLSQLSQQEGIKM
observedProperty: residual activity (%)
Numbers only, in %.

Some entries whose results are on file:
| compound | unitOfMeasurement | residual activity |
| --- | --- | --- |
| O=c1cc(-c2cccc3c2Sc2ccccc2S3)oc(N2CCOCC2)c1 | % | 98 |
| COc1cc2ncnc(Nc3ccc(F)c(Cl)c3)c2cc1OCCCN1CCOCC1 | % | 99.6 |
| COc1cc2nccc(Oc3ccc(NC(=S)NC(=O)c4ccccc4C)cc3)c2cc1OC | % | 98 |
| Cc1cc2ncc(-c3ccccc3)nc2cc1C | % | 94.7 |
| Oc1ccc(-c2nc(-c3ccc(F)cc3)c(-c3ccncc3)[nH]2)cc1 | % | 108 |
| C#Cc1cccc(Nc2ncnc3cc(OCCOC)c(OCCOC)cc23)c1 | % | 99.1 |
| CC(C)(C)c1nc2c3ccc(F)cc3c3c(=O)[nH]ccc3c2[nH]1 | % | 102 |
| Nc1nc(Nc2ccc(S(N)(=O)=O)cc2)nn1C(=S)Nc1c(F)cccc1F | % | 81.8 |

Quick one: give me residual activity for each item below, same order please.
1. CCN1/C(=C/C(C)=O)Sc2ccc(OC)cc21
2. CC(C)[C@H](CO)Nc1nc(Nc2cccc(Cl)c2)c2ncn(C(C)C)c2n1
3. CCCNC(=O)Nc1ccc(Oc2ncnc3cc(OC)c(OC)cc23)cc1Cl
4. Cc1ccc(NC(=O)c2ccc(CN3CCN(C)CC3)cc2)cc1Nc1nc(-c2cccnc2)cs1
5. COc1ccc(-c2cnc3c(-c4ccsc4)cnn3c2)cc1

Reply text:
94.2
103
102
98.5
98

Provide residual activity values for the following items, in order.
1. CSc1nc(-c2ccc(F)cc2)c(-c2ccnc(NC(C)c3ccccc3)c2)[nH]1 (stereo unspecified)
2. CS(=O)c1ccc(-c2nc(-c3ccc(F)cc3)c(-c3ccncc3)[nH]2)cc1 (stereo unspecified)
3. Nc1n[nH]c2nnc(-c3c(-c4ccccc4)nn4ccccc34)cc12
4. O=C(Nc1ccc(Cl)cc1)c1ccccc1NCc1ccncc1
5. O=C1Nc2ccccc2/C1=C\c1c(Cl)[nH]c2ccccc12
6. NC(=O)c1ccc(N(C(N)=O)c2c(F)cccc2F)nc1-c1ccc(F)cc1F
7. Clc1ccc(Nc2nnc(Cc3ccncc3)c3ccccc23)cc1
8. O=C1Cc2c([nH]c3ccc([N+](=O)[O-])cc23)-c2ccccc2N1

Reply text:
1: 93.3; 2: 101; 3: 96.1; 4: 100; 5: 94.4; 6: 96.7; 7: 96.8; 8: 103

---

molecular target: CDK1 CCNA2 (human) (UniProt P06493+P20248); experiment: radiometric filter-binding kinase assay, Kinase HotSpot; conditions: compound 0.5 µM; ATP 10 µM
Sequence (P06493 whole entry, looked up): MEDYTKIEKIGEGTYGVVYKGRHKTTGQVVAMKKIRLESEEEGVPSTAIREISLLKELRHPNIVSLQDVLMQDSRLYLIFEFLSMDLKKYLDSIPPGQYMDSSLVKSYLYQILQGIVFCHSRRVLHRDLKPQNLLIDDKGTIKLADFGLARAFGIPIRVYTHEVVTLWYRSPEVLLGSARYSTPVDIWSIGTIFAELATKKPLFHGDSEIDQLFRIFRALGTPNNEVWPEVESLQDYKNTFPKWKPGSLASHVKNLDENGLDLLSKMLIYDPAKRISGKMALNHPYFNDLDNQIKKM
Sequence (P20248 whole entry, looked up): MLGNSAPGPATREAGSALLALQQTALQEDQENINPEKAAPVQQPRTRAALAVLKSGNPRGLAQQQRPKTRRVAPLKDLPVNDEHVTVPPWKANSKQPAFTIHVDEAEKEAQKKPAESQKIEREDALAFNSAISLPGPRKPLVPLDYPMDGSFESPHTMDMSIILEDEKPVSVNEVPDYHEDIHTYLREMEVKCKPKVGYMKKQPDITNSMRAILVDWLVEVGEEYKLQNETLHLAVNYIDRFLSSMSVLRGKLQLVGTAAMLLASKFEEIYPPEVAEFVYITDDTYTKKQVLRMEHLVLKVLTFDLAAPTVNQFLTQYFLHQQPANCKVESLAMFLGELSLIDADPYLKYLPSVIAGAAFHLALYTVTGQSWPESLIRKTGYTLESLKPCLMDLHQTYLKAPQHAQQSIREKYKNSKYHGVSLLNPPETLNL
So basically: residual activity at 90% or higher? That is yes. Lower than 90%? That is no.

| compound | measuredTarget | group |
| --- | --- | --- |
| CCCNC(=O)Nc1ccc(Oc2ncnc3cc(OC)c(OC)cc23)cc1Cl | CDK1 CCNA2 (human) (UniProt P06493+P20248) | yes |
| O=C1Nc2cc(Br)ccc2/C1=C1/Nc2ccccc2/C1=N\O | CDK1 CCNA2 (human) (UniProt P06493+P20248) | no |
| CC(C)[C@H](CO)Nc1nc(Nc2cccc(Cl)c2)c2ncn(C(C)C)c2n1 | CDK1 CCNA2 (human) (UniProt P06493+P20248) | no |
| CSc1nc(-c2ccc(F)cc2)c(-c2ccnc(NC(C)c3ccccc3)c2)[nH]1 (configuration not stated) | CDK1 CCNA2 (human) (UniProt P06493+P20248) | no |

Query compound follows.
Inquiry: Check if residual activity >= 90% (inclusive). Item: `O=c1cc(-c2cccc3c2Sc2ccccc2S3)oc(N2CCOCC2)c1`
Reply text: yes

---

target: NUAK2 (human); assay: radiometric filter-binding kinase assay, Kinase HotSpot; settings: compound 0.5 µM; ATP 10 µM
Give residual activity for every item shown.
Answers are plain numbers, in %.

Quick one: give me residual activity for each item below, same order please.
1. CC(C)(C)c1nc2c3ccc(F)cc3c3c(=O)[nH]ccc3c2[nH]1
2. CC(C)[C@H](CO)Nc1nc(Nc2cccc(Cl)c2)c2ncn(C(C)C)c2n1
3. O=C1Nc2ccccc2/C1=C\c1c(Cl)[nH]c2ccccc12
4. CCCNC(=O)Nc1ccc(Oc2ncnc3cc(OC)c(OC)cc23)cc1Cl
5. COc1ccc(-c2cnc3c(-c4ccsc4)cnn3c2)cc1
6. O=C1Cc2c([nH]c3ccc([N+](=O)[O-])cc23)-c2ccccc2N1
7. CC(C)n1cnc2c(Nc3cccc(Cl)c3)nc(NCCO)nc21

Reply text:
[66, 134, 106, 123, 138, 68.6, 89.8]

Look up residual activity for the entries below, preserving their order.
1. CS(=O)c1ccc(-c2nc(-c3ccc(F)cc3)c(-c3ccncc3)[nH]2)cc1 (configuration not stated)
2. O=c1cc(N2CCNCC2)oc2c(-c3ccccc3)cccc12
3. Nc1nc(Nc2ccc(S(N)(=O)=O)cc2)nn1C(=O)c1c(F)cccc1F
4. Nc1nc(Nc2ccc(S(N)(=O)=O)cc2)nn1C(=S)Nc1c(F)cccc1F
5. CSc1nc(-c2ccc(F)cc2)c(-c2ccnc(NC(C)c3ccccc3)c2)[nH]1 (configuration not stated)
6. COc1cc2nccc(Oc3ccc(NC(=S)NC(=O)c4ccccc4C)cc3)c2cc1OC
7. C#Cc1cccc(Nc2ncnc3cc(OCCOC)c(OCCOC)cc23)c1

Reply text:
1. 131
2. 89.2
3. 34
4. 9.73
5. 86.5
6. 106
7. 95.3

Batch request: residual activity per item, same order as input.
1. CCN1/C(=C/C(C)=O)Sc2ccc(OC)cc21
2. COc1cc2ncnc(Nc3ccc(F)c(Cl)c3)c2cc1OCCCN1CCOCC1
3. NC(=O)c1ccc(N(C(N)=O)c2c(F)cccc2F)nc1-c1ccc(F)cc1F
4. Clc1ccc(Nc2nnc(Cc3ccncc3)c3ccccc23)cc1
5. O=c1cc(-c2cccc3c2Sc2ccccc2S3)oc(N2CCOCC2)c1
6. Cc1ccc(NC(=O)c2ccc(CN3CCN(C)CC3)cc2)cc1Nc1nc(-c2cccnc2)cs1
7. Cc1cc2ncc(-c3ccccc3)nc2cc1C

Reply text:
107
96
98.7
105
109
98.4
124

Inquiry: What value of measured residual activity is listed for `O=C1Nc2cc(Br)ccc2/C1=C1/Nc2ccccc2/C1=N\O` ?
Reply text: 73.4

---

Give residual activity for every item shown.
molecular target: MLTK (human) (UniProt Q9NYL2); assay: radiometric filter-binding kinase assay, Kinase HotSpot; conditions: compound 0.5 µM; ATP 10 µM
Sequence (Q9NYL2 whole entry, looked up): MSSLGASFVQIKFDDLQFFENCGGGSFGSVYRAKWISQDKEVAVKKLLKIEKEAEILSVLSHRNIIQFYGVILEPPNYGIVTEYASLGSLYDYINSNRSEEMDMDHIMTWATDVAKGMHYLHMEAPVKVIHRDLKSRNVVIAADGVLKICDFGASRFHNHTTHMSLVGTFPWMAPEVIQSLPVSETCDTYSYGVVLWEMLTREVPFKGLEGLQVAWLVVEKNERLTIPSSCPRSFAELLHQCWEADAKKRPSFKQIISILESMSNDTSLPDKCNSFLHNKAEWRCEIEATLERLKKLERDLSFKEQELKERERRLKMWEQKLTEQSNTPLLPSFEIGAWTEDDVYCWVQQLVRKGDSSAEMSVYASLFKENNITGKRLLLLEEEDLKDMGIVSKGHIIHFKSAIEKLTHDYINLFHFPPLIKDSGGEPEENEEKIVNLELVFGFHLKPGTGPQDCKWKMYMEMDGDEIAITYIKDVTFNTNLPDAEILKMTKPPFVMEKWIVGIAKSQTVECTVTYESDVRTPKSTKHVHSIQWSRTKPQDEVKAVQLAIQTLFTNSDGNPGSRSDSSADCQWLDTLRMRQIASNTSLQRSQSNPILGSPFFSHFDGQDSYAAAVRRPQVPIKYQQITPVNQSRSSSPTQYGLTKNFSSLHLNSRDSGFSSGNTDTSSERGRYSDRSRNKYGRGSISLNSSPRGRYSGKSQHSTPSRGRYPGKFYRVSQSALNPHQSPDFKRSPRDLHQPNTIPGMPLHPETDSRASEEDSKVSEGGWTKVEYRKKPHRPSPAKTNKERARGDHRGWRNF
Answers are plain numbers, in %.

| compound | residual activity (%) |
| --- | --- |
| Cc1ccc(NC(=O)c2ccc(CN3CCN(C)CC3)cc2)cc1Nc1nc(-c2cccnc2)cs1 | 86.8 |
| CCCNC(=O)Nc1ccc(Oc2ncnc3cc(OC)c(OC)cc23)cc1Cl | 103 |
| O=C1Nc2ccccc2/C1=C\c1c(Cl)[nH]c2ccccc12 | 99.2 |

Would you mind giving residual activity for every compound in the list below?
1. COc1cc2ncnc(Nc3ccc(F)c(Cl)c3)c2cc1OCCCN1CCOCC1
2. Nc1nc(Nc2ccc(S(N)(=O)=O)cc2)nn1C(=O)c1c(F)cccc1F

Reply text:
1: 96.2; 2: 100

Take each entry in turn and give its residual activity.
1. CS(=O)c1ccc(-c2nc(-c3ccc(F)cc3)c(-c3ccncc3)[nH]2)cc1 (configuration not stated)
2. COc1cc2nccc(Oc3ccc(NC(=S)NC(=O)c4ccccc4C)cc3)c2cc1OC

Reply text:
1: 100; 2: 71.7

Give residual activity for all compounds that follow.
1. NC(=O)c1ccc(N(C(N)=O)c2c(F)cccc2F)nc1-c1ccc(F)cc1F
2. C#Cc1cccc(Nc2ncnc3cc(OCCOC)c(OCCOC)cc23)c1
3. CSc1nc(-c2ccc(F)cc2)c(-c2ccnc(NC(C)c3ccccc3)c2)[nH]1 (configuration not stated)

Reply text:
1. 97.9
2. 92.2
3. 85.7

I have 6 compounds here; please give me residual activity for each one.
1. COc1ccc(-c2cnc3c(-c4ccsc4)cnn3c2)cc1
2. Nc1n[nH]c2nnc(-c3c(-c4ccccc4)nn4ccccc34)cc12
3. CC(C)[C@H](CO)Nc1nc(Nc2cccc(Cl)c2)c2ncn(C(C)C)c2n1
4. Cc1cc2ncc(-c3ccccc3)nc2cc1C
5. Oc1ccc(-c2nc(-c3ccc(F)cc3)c(-c3ccncc3)[nH]2)cc1
6. O=C1Nc2cc(Br)ccc2/C1=C1/Nc2ccccc2/C1=N\O

Reply text:
1. 84.1
2. 101
3. 108
4. 102
5. 98.8
6. 69

Provide residual activity values for the following items, in order.
1. Nc1nc(Nc2ccc(S(N)(=O)=O)cc2)nn1C(=S)Nc1c(F)cccc1F
2. O=c1cc(-c2cccc3c2Sc2ccccc2S3)oc(N2CCOCC2)c1
3. CC(C)(C)c1nc2c3ccc(F)cc3c3c(=O)[nH]ccc3c2[nH]1
4. O=c1cc(N2CCNCC2)oc2c(-c3ccccc3)cccc12
5. Clc1ccc(Nc2nnc(Cc3ccncc3)c3ccccc23)cc1
6. CCN1/C(=C/C(C)=O)Sc2ccc(OC)cc21

Reply text:
1: 49.1; 2: 100; 3: 78.1; 4: 103; 5: 90.3; 6: 91
